Data origin, for the record: patent US20110039763A1

tested on: microorganisms; assay: Targeting peptide binding to target microorganisms (Tables 3, 10, 12); settings: microorganism(s) the targeting peptide binds; binding in aqueous buffers varied with peptide solubility, preferably 1x PBS
observationType: Target(s)

A selection of reference data follows.
{"substance": "PF-651 (chain 1 PRWPTGAGRHR; chain 2 PRWPTGAGRHR; Peptide with targeting and/or antimicrobial activity)", "obsValue": "Mycobacteria spp"}
{"substance": "PF-711 (KTAGPTGTIYKTN; Peptide with targeting and/or antimicrobial activity)", "obsValue": "S. mutans"}
{"substance": "PF-661 (chain 1 PDEDIRRRAILPPAGPCRPMSPE; chain 2 PDEDIRRRAILPPAGPCRPMSPE; Peptide with targeting and/or antimicrobial activity)", "obsValue": "Mycobacteria spp"}
{"substance": "PF-351 (YLFFKGKKVAEEEATKDEVKR; Peptide with targeting and/or antimicrobial activity)", "obsValue": "S. mutans"}
{"substance": "PF-441 (TQVHKMARGIDPGPANGIYR; Peptide with targeting and/or antimicrobial activity)", "obsValue": "C. jeikeium"}
{"substance": "PF-601: peptide having multiple activities (chain 1 YRVTVKALE; chain 2 YRVTVKALE; Peptide with targeting and/or antimicrobial activity)", "obsValue": "C. jeikeium"}
{"substance": "PF-481 (DELYEIMDKVIEEFNKDIEQNNNNGNNEDLTENKIN; Peptide with targeting and/or antimicrobial activity)", "obsValue": "C. jeikeium"}
{"substance": "PF-101 (DPVPERQEQACACHRTAKPGK; Peptide with targeting and/or antimicrobial activity)", "obsValue": "S. mutans"}
{"substance": "PF-266 (DQEKKNKTEESTEQ; Peptide with targeting and/or antimicrobial activity)", "obsValue": "S. mutans"}
{"substance": "PF-666 (chain 1 PNRRSRPR; chain 2 PNRRSRPR; Peptide with targeting and/or antimicrobial activity)", "obsValue": "Mycobacteria spp"}

Note: attention shifts to another entry.
Q: Annotate the substance PF-217 (DWEFTHKTIPQKK; Peptide with targeting and/or antimicrobial activity) with its measured Target(s).
Ans: S. mutans

----------
System: microorganisms
Assay: Targeting peptide binding to target microorganisms (Tables 3, 10, 12)
Conditions: microorganism(s) the targeting peptide binds; binding in aqueous buffers varied with peptide solubility, preferably 1x PBS
Source text: In certain embodiments, the targeting moiety comprises one or more targeting peptides that bind particular bacteria, fungi, and/or yeasts, and/or algae, and/or viruses and/or that bind particular groups of bacteria, and/or groups of fungi, and/or groups of yeasts, and/or groups of algae. In certain embodiments the targeting peptides include peptides comprising or consisting of one or more of the amino acid sequences shown in Table 3 (SEQ ID NOs:13-1566). […]
observationType: Target(s)

Recorded results for 6 substances are shown here.
{"substance": "PF-230 (EDKPTNTIQEIKPVKWQ; Peptide with targeting and/or antimicrobial activity)", "assayedTarget": "microorganisms", "observationType": "Target(s)", "obsValue": "S. mutans"}
{"substance": "PF-691 (HRTVEFGVLGTYLVSGGSL; Peptide with targeting and/or antimicrobial activity)", "assayedTarget": "microorganisms", "observationType": "Target(s)", "obsValue": "Mycobacteria spp"}
{"substance": "PF-783 (FTSEVRGVFTYRVNKAGLITNMRGYWNLDMMTFGNQE; Peptide with targeting and/or antimicrobial activity)", "assayedTarget": "microorganisms", "observationType": "Target(s)", "obsValue": "Mycobacteria spp."}
{"substance": "PF-568 (TQAVQVKTAQAQQQ; Peptide with targeting and/or antimicrobial activity)", "assayedTarget": "microorganisms", "observationType": "Target(s)", "obsValue": "S. epidermidis"}
{"substance": "PF-698 (SSGRAGVKCRRPTGR; Peptide with targeting and/or antimicrobial activity)", "assayedTarget": "microorganisms", "observationType": "Target(s)", "obsValue": "Mycobacteria spp"}
{"substance": "PF670 (chain 1 TVIVAPMHSGV; chain 2 TVIVAPMHSGV; Peptide with targeting and/or antimicrobial activity)", "assayedTarget": "microorganisms", "observationType": "Target(s)", "obsValue": "Mycobacteria spp"}

Q: Consider the substance PF-791 (IFLTTQNTDYSEHNAA; Peptide with targeting and/or antimicrobial activity) . State its measured Target(s).
Ans: S. mutans

Q: Read off the recorded Target(s) for PF-436 (KKHVLVGKQEKNG; Peptide with targeting and/or antimicrobial activity)
Ans: C. jeikeium

Q: Provide one value: measured Target(s) of PF-786 (LSERERRRLKRGII; Peptide with targeting and/or antimicrobial activity)
Ans: Mycobacteria spp.

Q: Look up and state reported Target(s) for PF-650 (IRSDQPGRQSRSSPRWPTGAGRHR; Peptide with targeting and/or antimicrobial activity)
Ans: Mycobacteria spp

Q: Answer with the recorded Target(s) of PF-714 (FVVTQRMLRMYKK; Peptide with targeting and/or antimicrobial activity) only.
Ans: L. pneumophila

Q: Given PF-657 (chain 1 YVANYTITQFGRDFDDRLAVAIHFA; chain 2 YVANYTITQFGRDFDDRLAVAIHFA; Peptide with targeting and/or antimicrobial activity) , respond with its Target(s).
Ans: Mycobacteria spp

Q: Note down Target(s) recorded for PF-237 (YVKPKVGVHE; Peptide with targeting and/or antimicrobial activity)
Ans: S. epidermidis

Q: Give a short answer stating reported Target(s) for PF-709 (NKKHSPMD; Peptide with targeting and/or antimicrobial activity) .
Ans: S. mutans

Q: Indicate the recorded Target(s) value for this substance: PF-797 (WYYFDNNGYM; Peptide with targeting and/or antimicrobial activity)
Ans: S. mutans

Q: Give recorded Target(s). MKKLVAALAVIVILTGCVYDPVNYDKIHDQEFQDHLRQNG [PF-252]
Ans: S. mutans

Q: Provide measured Target(s) value, entry: PF-704 (APAARAAL; Peptide with targeting and/or antimicrobial activity)
Ans: Mycobacteria spp

Q: Output Target(s) of PF-647 (chain 1 GTFLGQKCAAATAS; chain 2 GTFLGQKCAAATAS; Peptide with targeting and/or antimicrobial activity)
Ans: Mycobacteria spp

Q: Tell me its Target(s) given PF-616: peptide having multiple activities (chain 1 IVFVVTKEKK; chain 2 IVFVVTKEKK; Peptide with targeting and/or antimicrobial activity) as the entry.
Ans: C. jeikeium

Q: Recall and state the measured Target(s) for PF-505 (GYTKDPGTGI; Peptide with targeting and/or antimicrobial activity) .
Ans: S. mutans

Q: Give Target(s) for PF-799 (YTHYNTALSYALLLTNKSSVP; Peptide with targeting and/or antimicrobial activity)
Ans: S. mutans

Q: Write down Target(s) measured for item PF-680 (ADPHPTTGI; Peptide with targeting and/or antimicrobial activity)
Ans: Mycobacteria spp

Q: Provide only the value of recorded Target(s) for PF-731 (RHKLIRLPLSESVFCFLNNPKI; Peptide with targeting and/or antimicrobial activity)
Ans: L. pneumophila
